These entries and their values trace back to PubChem BioAssay (NCI).

Quick list: TGI per entry.
system: HCT-116 colon; test: NCI tumour cell line growth inhibition, 48 h
Assay readout: TGI

1. OCCNCO; > 100 µM
2. O=C1c2ccccc2-c2c1c1cc3c(cc1c(=O)n2CCCCl)OCO3; 90.1 µM
3. CCOC(=O)C1CC(O)C(=O)N1C (centres undefined); > 100 µM
4. O=C1C(C=NCCc2c[nH]c3ccccc23)C(C(F)(F)F)=NN1c1nc2ccccc2s1 (centres undefined); > 100 µM
5. CC1=C2c3ccccc3N(C(=O)/C=C/C(=O)O)[C@H]2[C@H]2C(=O)OC(=O)[C@H]2C1; > 10 µM
6. O=C(O)c1ccc(NS(=O)(=O)Cc2ccccc2)cc1; > 100 µM
7. CC1=CC=CC(C)(C)CC1(O[Si](C)(C)C)C(F)(F)F (centres undefined); > 100 µM
8. CC(C)(C)C1=NC(S)NC(CCC(=O)Nc2ccccc2[N+](=O)[O-])=C1 (centres undefined); > 100 µM
9. Nc1ncnc2c1ncn2C(=O)NC12CC3CC(CC(C3)C1)C2; > 100 µM
10. COC1C=CC23c4cc5c(cc4C(O)OC2CN(C)C3C1)OCO5 (centres undefined); 10.1 µM
11. O=C1/C(=C/c2ccc([N+](=O)[O-])cc2)CNC/C1=C\c1ccc([N+](=O)[O-])cc1; 1.97 µM
12. CC(=O)OCC1OC(n2c(=S)[nH]c(-c3ccccc3)c(C#N)c2=O)C(OC(C)=O)C(OC(C)=O)C1OC(C)=O (centres undefined); > 100 µM
13. O=C(N/N=C/c1cccc(O)c1O)N/N=C/c1cccc(O)c1O; 39.8 µM
14. C=C1CC(OC)(C(O)C(=O)N[C@H]2OCO[C@H]3C2O[C@H](C[C@@H](COC)OC)C(C)(C)C3OC)O[C@H](C)[C@@H]1C (some centres undefined); < 0.00482 µM

* * *

system: LOX IMVI melanoma; test: NCI tumour cell line growth inhibition, 48 h
Assay readout: TGI

1. CCOC(=O)CCCO; > 100 µM
2. N#Cc1cnn2ccn(C3OC(COC(=O)c4ccccc4)C(OC(=O)c4ccccc4)C3OC(=O)c3ccccc3)c12 (stereo not given); > 31.6 µM
3. COc1cc([C@@H]2c3cc4c(cc3C[C@H]3COC(=O)[C@@H]32)OCO4)cc(OC)c1OC; > 50 µM
4. C(=Nc1ccc(-c2nc3ccccc3s2)cc1)c1ccco1; > 100 µM
5. CN(C)c1ccc(/C(Br)=C2\OC(=O)c3ccccc32)cc1; > 100 µM
6. C1CN2N3CCCC23C1 (stereo not given); > 100 µM
7. O=C(CCc1ccc(O)cc1)c1c(O)cc(O)cc1OC1OC(CO)C(O)C(O)C1O (stereo not given); > 100 µM
8. COC(=O)[C@@H](C)C[C@H](Cc1ccccc1)NC(=O)c1nc([C@@H](C[C@H](C(C)C)N(C)C(=O)[C@@H](NC(=O)[C@H]2CCCN2C)C(C)C)OC(C)=O)sc1C; > 25 µM
9. NS(=O)(=O)c1ccc(-n2nc(-c3ccc(Br)cc3)ccc2=O)cc1; > 10 µM
10. CN=C1NC(=O)/C(=C/c2ccc3ncccc3c2)S1; > 25 µM
11. O=C1c2ccccc2-c2c1c1cc3c(cc1c(=O)n2CCCCl)OCO3; > 100 µM
12. CC(C)=CC1C(C(=O)O)C1(C)C (stereo not given); > 750 µM
13. Cc1nc2nnc(C)n2c2c1C(=O)Nc1ccccc1N2; > 100 µM
14. CCOC(=O)c1cnc2[nH]ccn2c1=O; > 10 µM
15. CNC(=O)c1cc(Oc2ccc3c(c2)sc2nc(-c4ccc(N)cc4)cn23)ccn1; > 100 µM
